# Tested on: Trypanosoma brucei
# assay.explanation: Trypanosoma brucei 72 hour study
# Assay type: functional, organism-based
# Parameters: scale not given: in the data most compounds retested in dose-response had high values
# particulars: 30 µM; 30.03 µM
About 960 (1.5%) of roughly 66,000 compounds showed an effect of 50% or more. Many of the other results were omitted from the sample, so strong results are more common in it than they were.
quantity: Percent Effect (%)

Oc1c(F)cc(CNc2cccc(-c3nnc[nH]3)c2)cc1F; -51.33
CC1(C)CNC(=O)c2nc(-c3n[nH]c(=O)[nH]3)[nH]c2C1; -63.36
CCN1CC2(CC1=O)CN(Cc1ccncc1)CCN(C(=O)C(C)C)C2.O=C(O)C(F)(F)F.O=C(O)C(F)(F)F (stereo not given); -22.83
COCCN1CCC(CNC(=O)CCc2cc(F)ccc2F)C1 (stereo not given); -4.617
COc1cc(-c2nc3c([nH]2)CCCNC3=O)cc(OC)c1OC; -56.65
